Each item that follows carries a reported self-splicing fitness (ln).
protocol_details: self-splicing fitness, log relative to wild type (ln ratio); higher = more splicing; Tetrahymena group I intron in knt gene, E. coli kanamycin selection, DiMSum; sequences stand for … in CUCUCU…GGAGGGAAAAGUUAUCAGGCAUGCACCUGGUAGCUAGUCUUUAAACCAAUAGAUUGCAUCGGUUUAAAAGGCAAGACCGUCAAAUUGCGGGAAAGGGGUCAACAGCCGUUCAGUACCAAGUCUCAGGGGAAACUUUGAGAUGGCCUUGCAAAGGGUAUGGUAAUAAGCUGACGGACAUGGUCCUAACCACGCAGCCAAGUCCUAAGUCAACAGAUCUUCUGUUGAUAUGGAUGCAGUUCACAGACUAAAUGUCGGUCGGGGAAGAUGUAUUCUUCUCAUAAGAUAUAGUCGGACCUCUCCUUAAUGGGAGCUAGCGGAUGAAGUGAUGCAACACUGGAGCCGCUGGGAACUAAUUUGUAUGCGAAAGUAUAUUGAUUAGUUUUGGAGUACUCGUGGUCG;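 also: selection with 25 µg/mL kanamycin versus none on LB agar overnight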
run_conditions: 30 °C
Just the number, please.

construct_sequence | self-splicing fitness (ln)
ACAAAGCAAUAUUACGCUUA | -2.37

Input: Output self-splicing fitness (ln) of GUAGAGCAAUAUUACGGGAA
Output: -3.56

Input: Output self-splicing fitness (ln) of CUGCAGCAAUAUUACGUAGA
Output: -3.08

Input: Output self-splicing fitness (ln) of CACUAGCAAUAUUACGGUCG
Output: -0.198

Input: Output self-splicing fitness (ln) of GCCAAGCAAUAUUACGAACG
Output: -2.71

Data origin: the supplement of paper PMC7877785
